# System: HLA-A*2402 transgenic mice
# METHOD_NOTES: CTL induction in vivo in HLA-A*2402 transgenic mice (immunogenicity, Cr51 cytotoxic assay)
# Set-up: key: −: (-) means that none of the mice vaccinated with the corresponding native peptides develops a specific immune response; (+) that less to 50% of vaccinated mice responded; (++) that more that 50% responded
# CONDITION_DETAILS: Table 7; mice vaccinated with the native or modified peptide; share of mice responding
PROPERTY_MEASURED: Immunogenicity (class)

PYGKGWDLM (Cryptic HLA-A2402 restricted peptide) [EphA2 47, native cryptic HLA-A*2402 restricted peptide]
−
PYNYLSTDV (Cryptic HLA-A2402 restricted peptide) [Her2/neu 300, native cryptic HLA-A*2402 restricted peptide]
−
RYEFLWGPL (Optimized peptide derived from cryptic peptides of SEQ ID Nos 1 to 9) [MAGE 261 L9, modified peptide]
−
